# Tested on: 873145-292-R-J1-PDC complex spheroid viability
# Test: Anticancer human tumor 873145-292-R-J1-PDC patient-derived renal clear cell carcinoma cell line growth inhibition [POLQ]
# Condition Label: second compound 10 µM; first compound 3.16 µM; stronger effect = lower value
Test Readout: viability, T/C (%)
Give bare numbers, in %.

Please review the entries below; each comes with its answer.
(Q) Value lookup for viability, T/C; key = COc1ccc([C@@H](O)c2cc(-c3ncnc4cc(N5CCOCC5)ccc34)c(F)cc2Cl)nn1 + Cc1cccc(N(C)C(=O)C2C(O)CCN2c2nc(C)cc(C(F)(F)F)c2C#N)c1
(A) 58.1

(Q) # lookup: viability, T/C of CNCc1ccc(-c2[nH]c3cc(F)cc4c3c2CCNC4=O)cc1 + Nc1ccc(C#CCN(C(=O)Cc2ncc(C(F)(F)F)cc2C(F)(F)F)c2ccc(F)cc2)nn1
(A) 99.4

Would you mind listing viability, T/C for each of the following molecules?
1. COc1cccc2c1C(=O)c1c(O)c3c(c(O)c1C2=O)CC(O)(C(=O)CO)CC3OC1CC(N)C(O)C(C)O1 (stereo unspecified) + Cc1cccc(N(C)C(=O)C2C(O)CCN2c2nc(C)cc(C(F)(F)F)c2C#N)c1
2. CCCS(=O)(=O)Nc1ccc(F)c(C(=O)c2c[nH]c3ncc(-c4ccc(Cl)cc4)cc23)c1F + Cc1cccc(N(C)C(=O)C2C(O)CCN2c2nc(C)cc(C(F)(F)F)c2C#N)c1
3. CC1COCCN1c1cc(C2(S(C)(=N)=O)CC2)nc(-c2ccnc3[nH]ccc23)n1 (stereo unspecified) + Nc1ccc(C#CCN(C(=O)Cc2ncc(C(F)(F)F)cc2C(F)(F)F)c2ccc(F)cc2)nn1
4. CCc1cc2c(N3CCc4c(cc(Cn5ccnc5)cc4-c4cn(C)nc4C(F)(F)F)C3=O)ccnc2c(OC)n1 + Cc1cccc(N(C)C(=O)C2C(O)CCN2c2nc(C)cc(C(F)(F)F)c2C#N)c1
5. C#Cc1c(F)ccc2cc(O)cc(-c3ncc4c(N5CC6CCC(C5)N6)nc(OCC56CCCN5CC(F)C6)nc4c3F)c12 (stereo unspecified) + COC1C(OC(N)=O)C(O)C(Oc2ccc3c(O)c(NC(=O)c4ccc(O)c(CC=C(C)C)c4)c(=O)oc3c2C)OC1(C)C

(A)
[0.94, 96.8, 85.5, 81.2, 86.9]

---

# Test system: 873145-292-R-J1-PDC complex spheroid viability
# Test: Anticancer human tumor 873145-292-R-J1-PDC cell line growth inhibition [POLQ];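 also: spheroids exposed to compounds for 7 days before viability readout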
# Condition Label: curve of first compound; second compound 3.16 µM
# Method: Multicellular complex tumor spheroid response to Polymerase (POL) inhibitors (novobiocin, ART-558, RP6685) in combination with a variety of drugs and investigational agents in selected tumor cell lines The POL inhibitors (novobiocin, ART-558, and RP6685) were evaluated both individually and in combination with standard of care and investigational anticancer small molecules within a complex spheroid model of solid tumors. . […]
pIC50: −log10 of the molar value.
Test Readout: pIC50

Worked examples follow.
(Q) What value of pIC50 has been recorded for this entry: COc1cccc(OCCCN)c1-c1cc(Nc2cnc(C#N)cn2)n[nH]1 + COC1C(OC(N)=O)C(O)C(Oc2ccc3c(O)c(NC(=O)c4ccc(O)c(CC=C(C)C)c4)c(=O)oc3c2C)OC1(C)C
(A) < 6.00

(Q) Request the reported pIC50 associated with C=CC(=O)N1CCN(c2nc(=O)n(-c3c(C)ccnc3C(C)C)c3nc(-c4c(O)cccc4F)c(F)cc23)C(C)C1 (stereo not given) + COC1C(OC(N)=O)C(O)C(Oc2ccc3c(O)c(NC(=O)c4ccc(O)c(CC=C(C)C)c4)c(=O)oc3c2C)OC1(C)C
(A) < 5.00

(Q) Reported pIC50 for O=C(c1cc(Cc2n[nH]c(=O)c3ccccc23)ccc1F)N1CCN(C(=O)C2CC2)CC1 + COC1C(OC(N)=O)C(O)C(Oc2ccc3c(O)c(NC(=O)c4ccc(O)c(CC=C(C)C)c4)c(=O)oc3c2C)OC1(C)C : what is it?
(A) < 5.00

(Q) Given Cn1ncnc1[C@H]1c2n[nH]c(=O)c3cc(F)cc(c23)N[C@@H]1c1ccc(F)cc1 + Cc1cccc(N(C)C(=O)C2C(O)CCN2c2nc(C)cc(C(F)(F)F)c2C#N)c1 , state its recorded pIC50.
(A) < 7.00

(Q) Which measured pIC50 value corresponds to O=c1[nH]cc(F)c(=O)[nH]1 + COC1C(OC(N)=O)C(O)C(Oc2ccc3c(O)c(NC(=O)c4ccc(O)c(CC=C(C)C)c4)c(=O)oc3c2C)OC1(C)C ?
(A) < 5.00

Hey, quick one: what's pIC50 for each of these?
1. CCc1cc2c(N3CCc4c(cc(Cn5ccnc5)cc4-c4cn(C)nc4C(F)(F)F)C3=O)ccnc2c(OC)n1 + Cc1cccc(N(C)C(=O)C2C(O)CCN2c2nc(C)cc(C(F)(F)F)c2C#N)c1
2. CCc1cc2c(N3CCc4c(cc(Cn5ccnc5)cc4-c4cn(C)nc4C(F)(F)F)C3=O)cc(C)nc2c(OC)n1 + COC1C(OC(N)=O)C(O)C(Oc2ccc3c(O)c(NC(=O)c4ccc(O)c(CC=C(C)C)c4)c(=O)oc3c2C)OC1(C)C
3. CC(=O)O[C@H]1C(=O)[C@@]2(C)[C@H]([C@H](OC(=O)c3ccccc3)[C@]3(O)C[C@H](OC(=O)[C@H](O)[C@@H](NC(=O)c4ccccc4)c4ccccc4)C(C)=C1C3(C)C)[C@]1(OC(C)=O)CO[C@@H]1C[C@@H]2O + Nc1ccc(C#CCN(C(=O)Cc2ncc(C(F)(F)F)cc2C(F)(F)F)c2ccc(F)cc2)nn1
4. COc1ccc([C@@H](O)c2cc(-c3ncnc4cc(N5CCOCC5)ccc34)c(F)cc2Cl)nn1 + COC1C(OC(N)=O)C(O)C(Oc2ccc3c(O)c(NC(=O)c4ccc(O)c(CC=C(C)C)c4)c(=O)oc3c2C)OC1(C)C
5. O=C(c1cc(Cc2n[nH]c(=O)c3ccccc23)ccc1F)N1CCN(C(=O)C2CC2)CC1 + Nc1ccc(C#CCN(C(=O)Cc2ncc(C(F)(F)F)cc2C(F)(F)F)c2ccc(F)cc2)nn1

(A)
< 5.00
< 5.00
< 5.52
5.21
< 5.00
